Test system: DMS-273
Assay: NCI tumour cell line growth inhibition, 48 h
Activity calls are given as the source filed them. No stated cut-off is given here; in the data, active = GI50 up to about 1.1 µM and inactive = higher.
recorded-metric: GI50

[[record]]
compound = "COc1ccc(C(=O)OCC2OC(n3cnc4c(=S)nc[nH]c43)C(OC(=O)c3ccc(OC)cc3)C2OC(=O)c2ccc(OC)cc2)cc1 (centres undefined)"
result = "15 µM (inactive)"

[[record]]
compound = "NNC(=O)/C(NC(=O)c1ccccc1)=C(\\N)c1cccc([N+](=O)[O-])c1"
result = "> 100 µM (inactive)"

[[record]]
compound = "Cc1ccc(S(=O)(=O)C2=c3ncccc3=C3C(=O)c4ccccc4C(=O)C32)cc1 (centres undefined)"
result = "26.5 µM (inactive)"

[[record]]
compound = "O=C(N/N=C1\\C(=O)N(c2nccs2)C(=O)C(=O)C1c1nc2ccccc2s1)c1ccccc1O (centres undefined)"
result = "31.8 µM (inactive)"


Observed GI50, DMS-273, `CSCC[C@@H]1C(=O)N(C)[C@H](C(C)(C)C)N1C(=O)c1ccccc1` : > 100 µM (inactive)

Observed GI50, DMS-273, C#CCN(N=O)C(=O)NC(CCCCNC(=O)OCc1ccccc1)C(=O)OCc1ccccc1 (centres undefined) : 43.9 µM (inactive)

Observed GI50, DMS-273, BrC1(Br)C2/C=C\CCCCC21 (centres undefined) : > 100 µM (inactive)

Observed GI50, DMS-273, `Cc1cc(C)nc(NS(=O)(=O)c2ccc(Nc3c4ccccc4nc4c(C(=O)Nc5ccc(S(=O)(=O)Nc6cc(C)on6)cc5)cccc34)cc2)n1` : 23.8 µM (inactive)

Observed GI50, DMS-273, `CN=[S+]([O-])(c1ccccc1)c1ccccc1` : > 100 µM (inactive)

Cited source: ChEMBL document CHEMBL1201862
